METHOD_SUMMARY: Binding affinity to dA60.dT60 B-DNA duplex (unknown origin) assessed as change in melting temperature at 10 uM by UV-vis spectrophotometric analysis
# if value of ΔTm reaches 1 °C, tag yes; if it stays below, tag no

| GIVEN_SMILES | ASSIGNED_CLASS |
| --- | --- |
| C#CCOCCCCCCCCCCCCOc1ccc(-c2nc3ccc(-c4nc5ccc(N6CCN(C)CC6)cc5[nH]4)cc3[nH]2)cc1 | yes |
| CN1CCN(c2ccc3nc(-c4ccc(OCCCN)cc4)[nH]c3c2)CC1 | yes |
| Oc1ccc(-c2nc3ccccc3[nH]2)cc1 | no |
| C#Cc1ccc(-c2cn(CCOc3ccc(-c4nc5ccc(N6CCN(C)CC6)cc5[nH]4)cc3)nn2)cc1 | yes |

Task: API: above_or_equal(metric=ΔTm, cutoff=1 °C) for item `C#CCOCCOCCOCCOCCOCCOCCOc1ccc(-c2nc3ccc(-c4nc5ccc(N6CCN(C)CC6)cc5[nH]4)cc3[nH]2)cc1`
Output: yes

Task: API: above_or_equal(metric=ΔTm, cutoff=1 °C) for item `C#CCOCCCCCCOc1ccc(-c2nc3ccc(-c4nc5ccc(N6CCN(C)CC6)cc5[nH]4)cc3[nH]2)cc1`
Output: yes

Task: API: above_or_equal(metric=ΔTm, cutoff=1 °C) for item `C#CCOc1ccc(-c2nc3ccc(N4CCN(C)CC4)cc3[nH]2)cc1`
Output: yes

Task: API: above_or_equal(metric=ΔTm, cutoff=1 °C) for item `C#CCOCCCCCCOc1ccc(-c2nc3ccc(N4CCN(C)CC4)cc3[nH]2)cc1`
Output: yes

Task: API: above_or_equal(metric=ΔTm, cutoff=1 °C) for item `CN1CCN(c2cc(C(=O)O)c3nc(-c4ccc(O)cc4)[nH]c3c2)CC1`
Output: no
